Test system: HCV replicon, genotype-1a variant with glutamine 30 changed to glutamate in the NS5A protein
Experiment: microbe, parasite or virus in culture
Type: cell-based, HCV genotype 1a
Conditions: HCV replicon genotype 1a Q30E (Q→E) variant; test compound titrated with an NS5A-targeting compound (BMS-790052 fixed at 200 nM); ranking of synergist activity
Item-by-item account of Fold-Synergistic 1a (Q30E)

compound	Fold-Synergistic 1a (Q30E)
C#CCCC(=O)N1CCC[C@H]1c1ncc(-c2ccc(-c3ccc(-c4cnc([C@@H]5CCCN5C(=O)CCC#C)[nH]4)cc3)cc2)[nH]1	<10 fold
COc1cccc(C2(C(=O)N[C@H](c3nc(-c4ccc(-c5ccc(-c6c[nH]c([C@@H](NC(=O)C7(c8cccc(OC)c8)CCC(C)CC7)C(C)(C)C)n6)cc5)cc4)c[nH]3)C(C)(C)C)CCC(C)CC2)c1 (some centres unmarked)	>100 fold
CC(C)(C)[C@H](NC(=O)C1CCC(F)(F)CC1)c1nc(-c2ccc(-c3cnc(-c4c[nH]c([C@@H](NC(=O)C5CCC(F)(F)CC5)C(C)(C)C)n4)cn3)cc2)c[nH]1	>100 fold
CC(C)CC(=O)N[C@@H](CC(C)C)c1nc(-c2ccc(-c3ccc(-c4c[nH]c([C@H](CC(C)C)NC(=O)CC(C)C)n4)cc3)cc2)c[nH]1	>10 fold
CC(C)(C)OC(=O)N1[C@@H]2CC[C@@H](C2)[C@H]1C(=O)N[C@H](c1nc(-c2ccc(-c3ccc(-c4c[nH]c([C@@H](NC(=O)[C@@H]5[C@H]6CC[C@H](C6)N5C(=O)OC(C)(C)C)C(C)(C)C)n4)cc3)cc2)c[nH]1)C(C)(C)C	>100 fold

---

System: HCV replicon, genotype-1a variant with glutamine 30 changed to glutamate in the NS5A protein
Test: microbe, parasite or virus in culture
Assay type: cell-based, HCV genotype 1a
Settings: HCV replicon genotype 1a Q30E (Q→E) variant; test compound titrated with an NS5A-targeting compound (BMS-790052 fixed at 200 nM); ranking of synergist activity

compound.structure	Fold-Synergistic 1a (Q30E)
COC(=O)N[C@@H](C(=O)N[C@H](c1nc(-c2ccc3cc(-c4ccc(-c5cnc([C@@H](NC(=O)[C@H](NC(=O)OC)C(C)C)C(C)(C)C)[nH]5)cc4)ccc3c2)c[nH]1)C(C)(C)C)C(C)C	>10 fold
CC(C)(C)[C@H](NC(=O)C(=O)c1ccco1)c1nc(-c2ccc(-c3ccc(-c4c[nH]c([C@@H](NC(=O)C(=O)c5ccco5)C(C)(C)C)n4)cc3)cc2)c[nH]1	>100 fold
Cc1ccc(C2(C(=O)N3CCC[C@H]3c3ncc(-c4ccc(-c5ccc(-c6cnc([C@@H]7CCCN7C(=O)C7(c8ccc(C)cc8)CCCC7)[nH]6)cc5)cc4)[nH]3)CCCC2)cc1	<10 fold
N#CCC(=O)N1CCC[C@H]1c1ncc(-c2ccc(-c3ccc(-c4cnc([C@@H]5CCCN5C(=O)CC#N)[nH]4)cc3)cc2)[nH]1	<10 fold
CC(C)(C)[C@H](NC(=O)C(F)(F)Sc1ccccc1)c1nc(-c2ccc(-c3ccc(-c4c[nH]c([C@@H](NC(=O)C(F)(F)Sc5ccccc5)C(C)(C)C)n4)cc3)cc2)c[nH]1	>100 fold

---

System: HCV replicon, genotype-1a variant with glutamine 30 changed to glutamate in the NS5A protein
Test: microbe, parasite or virus in culture
Type: cell-based, HCV genotype 1a
Conditions: HCV replicon genotype 1a Q30E (Q→E) variant; test compound titrated with an NS5A-targeting compound (BMS-790052 fixed at 200 nM); ranking of synergist activity

compound.structure	Fold-Synergistic 1a (Q30E)
C[C@@H]1CN(C(C)(C)C(=O)N[C@H](c2nc(-c3ccc(-c4ccc(-c5c[nH]c([C@@H](NC(=O)C(C)(C)N6C[C@@H](C)O[C@@H](C)C6)C(C)(C)C)n5)cc4)cc3)c[nH]2)C(C)(C)C)C[C@H](C)O1	>10 fold
CC(C)(C)OC(=O)N[C@]1(C(=O)N[C@H](c2nc(-c3ccc(-c4ccc(-c5c[nH]c([C@@H](NC(=O)[C@@]6(NC(=O)OC(C)(C)C)C[C@H]6C6CC6)C(C)(C)C)n5)cc4)cc3)c[nH]2)C(C)(C)C)C[C@H]1C1CC1	>100 fold

---

Tested on: HCV replicon, genotype-1a variant with glutamine 30 changed to glutamate in the NS5A protein
Test: microbe, parasite or virus in culture
Format: cell-based, HCV genotype 1a
Conditions: HCV replicon genotype 1a Q30E (Q→E) variant; test compound titrated with an NS5A-targeting compound (BMS-790052 fixed at 200 nM); ranking of synergist activity
Catalogue of Fold-Synergistic 1a (Q30E) values

compound	Fold-Synergistic 1a (Q30E)
CC(C)(C)[C@H](NC(=O)C1(C(=O)N2CCC(F)(F)CC2)CC1)c1nc(-c2ccc(-c3ccc(-c4c[nH]c([C@@H](NC(=O)C5(C(=O)N6CCC(F)(F)CC6)CC5)C(C)(C)C)n4)cc3)cc2)c[nH]1 [Compound P-148]	>100 fold
COc1ccc2c(C(=O)N3CCC[C@H]3c3ncc(-c4ccc(-c5ccc(-c6cnc([C@@H]7CCCN7C(=O)c7nc(Cl)cc8cc(OC)ccc78)[nH]6)cc5)cc4)[nH]3)nc(Cl)cc2c1 [Compound S-204]	>100 fold
CC(C)CC(=O)N[C@@H](Cc1ccc2ccccc2c1)c1nc(-c2ccc(-c3ccc(-c4c[nH]c([C@H](Cc5ccc6ccccc6c5)NC(=O)CC(C)C)n4)cc3)cc2)c[nH]1 [Compound P-8]	<10 fold
O=C(c1cnc2n(c1=O)CCS2)N1CCC[C@H]1c1ncc(-c2ccc(-c3ccc(-c4cnc([C@@H]5CCCN5C(=O)c5cnc6n(c5=O)CCS6)[nH]4)cc3)cc2)[nH]1 [Compound S-135]	<10 fold
CC(C)(C)C(=O)N[C@H](c1nc(-c2ccc(-c3ccc(-c4c[nH]c([C@@H](NC(=O)C(C)(C)C)C(C)(C)C)n4)c(F)c3)cc2)c[nH]1)C(C)(C)C [Compound N-93]	>100 fold

---

Test system: HCV replicon, genotype-1a variant with glutamine 30 changed to glutamate in the NS5A protein
Test: microbe, parasite or virus in culture
Assay type: cell-based, HCV genotype 1a
Conditions: HCV replicon genotype 1a Q30E (Q→E) variant; test compound titrated with an NS5A-targeting compound (BMS-790052 fixed at 200 nM); ranking of synergist activity

compound	Fold-Synergistic 1a (Q30E)
CC(C)(C)OC(=O)N1CC2(CC(C(=O)N[C@H](c3nc(-c4ccc(-c5ccc(-c6c[nH]c([C@@H](NC(=O)C7CC8(C7)CN(C(=O)OC(C)(C)C)C8)C(C)(C)C)n6)cc5)cc4)c[nH]3)C(C)(C)C)C2)C1 (some centres unmarked)	>100 fold
COC(C)(C)[C@H](NC(=O)C(C)(C)CF)c1nc(-c2ccc(-c3ccc(-c4c[nH]c([C@@H](NC(=O)C(C)(C)CF)C(C)(C)OC)n4)cc3)cc2)c[nH]1	>100 fold
CC(C)[C@H](NC(=O)C(C)(C)OCC(F)F)c1nc(-c2ccc(-c3ccc(-c4c[nH]c([C@@H](NC(=O)C(C)(C)OCC(F)F)C(C)C)n4)c(F)c3)cc2)c[nH]1	>100 fold
O=C(C1CCCCC1)N1CCC[C@H]1c1ncc(-c2ccc(-c3ccc(-c4cnc([C@@H]5CCCN5C(=O)C5CCCCC5)[nH]4)cc3)cc2)[nH]1	<10 fold
CC(C)(C)[C@H](Nc1nc2ccccc2s1)c1nc(-c2ccc(-c3ccc(-c4c[nH]c([C@@H](Nc5nc6ccccc6s5)C(C)(C)C)n4)cc3)cc2)c[nH]1	>10 fold

---

Below, each entry is listed with its recorded Fold-Synergistic 1a (Q30E).
Test system: HCV replicon, genotype-1a variant with glutamine 30 changed to glutamate in the NS5A protein
Assay: microbe, parasite or virus in culture
Type: cell-based, HCV genotype 1a
Settings: HCV replicon genotype 1a Q30E (Q→E) variant; test compound titrated with an NS5A-targeting compound (BMS-790052 fixed at 200 nM); ranking of synergist activity
quantity: Fold-Synergistic 1a (Q30E)

molecule	result
CC(C)(C)[C@H](NC(=O)C1(CF)CCCO1)c1nc(-c2ccc(-c3ccc(-c4c[nH]c([C@@H](NC(=O)C5(CF)CCCO5)C(C)(C)C)n4)cc3)cc2)c[nH]1 (some centres unmarked)	>100 fold
CC1(C)CCCC(C)(C(=O)N[C@H](c2nc(-c3ccc(-c4ccc(-c5c[nH]c([C@@H](NC(=O)C6(C)CCCC(C)(C)O6)C(C)(C)C)n5)cc4)cc3)c[nH]2)C(C)(C)C)O1 (some centres unmarked) [Compound W-167]	>100 fold
CC(C)(C)CC(=O)N1CCC[C@H]1c1ncc(-c2ccc(-c3ccc(-c4cnc([C@@H]5CCCN5C(=O)CC(C)(C)C)[nH]4)cc3)cc2)[nH]1	<10 fold
O=C(C1CCCCCC1)N1CCC[C@H]1c1ncc(-c2ccc(-c3ccc(-c4cnc([C@@H]5CCCN5C(=O)C5CCCCCC5)[nH]4)cc3)cc2)[nH]1	>10 fold
C=C[C@@H]1C[C@]1(NC(=O)OC(C)(C)C)C(=O)N[C@H](c1nc(-c2ccc(-c3ccc(-c4c[nH]c([C@@H](NC(=O)[C@@]5(NC(=O)OC(C)(C)C)C[C@H]5C=C)C(C)(C)C)n4)cc3)cc2)c[nH]1)C(C)(C)C	>100 fold
